binders and their reported pKd
measuredOn: T1, hIL10Ra-his (Sino Biological, Catalog#10419) (human, UniProt Q13651 22-235)
T1 construct: Bought; also called Sino Biological cat#10419-H08H; not shown: C-terminal poly-His tag
T1 sequence: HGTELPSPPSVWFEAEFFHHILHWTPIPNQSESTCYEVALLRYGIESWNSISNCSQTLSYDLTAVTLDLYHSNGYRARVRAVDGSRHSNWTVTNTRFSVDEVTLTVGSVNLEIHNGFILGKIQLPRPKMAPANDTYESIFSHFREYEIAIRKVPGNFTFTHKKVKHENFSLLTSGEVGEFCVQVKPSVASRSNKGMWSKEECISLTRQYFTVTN
test: SPR Biacore T200; mono-Fc VHH captured on Protein A chip, hIL10Ra-his analyte; 1:1 Langmuir fit
# log scale: pKd equals minus log10 of the concentration in mol/L

The cases that follow already have their pKd on record.
- binder: "hIL-10Ra_VHH6 Mono-Fc (Fc fusion, Mono-Fc VHH captured on Protein A; not shown: mono-Fc part) QVQLQESGGGSVQAGGSLRLSCAASRFTYSSYCMGWFRQAPGKEREGVASIDSDGSTSYTDSVKGRFTISKDNAKNTLYLQMNSLKPEDTAMYYCALDLMSTVVPGFCGFLLSAGMDYWGKGTQVTVSS"
  pKd: 8.74
- binder: "hIL-10Ra_VHH10 Mono-Fc (Fc fusion, Mono-Fc VHH captured on Protein A; not shown: mono-Fc part) QVQLQESGGGSVQAGGSLRLSCAASRYLYSIDYMAWFRQSPGKEREPVAVIYTASGATFYPDSVKGRFTISQDNAKMTVYLQMNSLKSEDTAMYYCAAVRKTDSYLFDAQSFTYWGQGTQVTVSS"
  pKd: 7.87
- binder: "hIL-10Ra_VHH17 Mono-Fc (Fc fusion, Mono-Fc VHH captured on Protein A; not shown: mono-Fc part) QVQLQESGGGSVQAGGSLRLSCAASGYSNCSYDMTWYRQAPGKEREFVSAIHSDGSTRYADSVKGRFFISQDNAKNTVYLQMNSLKPEDTAMYYCKTDPLHCRAHGGSWYSVRANYWGQGTQVTVSS"
  pKd: 8.22

Let us examine a further case.
Query: Item hIL-10Ra_VHH9 Mono-Fc (Fc fusion, Mono-Fc VHH captured on Protein A; not shown: mono-Fc part) QVQLQESGGGSVQAGGSLRLSCAVSGYAYSTYCMGWFRQAPGKEREGVAAIDSGGSTSYADSVKGRFTISKDNAKNTLYLRMNSLKPEDTAMYYCAAVPPPPDGGSCLFLGPEIKVSKADFRYWGQGTQVTVSS has what recorded pKd?
Result: 7.94
